# TEST METHOD NOTES: NIH3T3 cell viability loss – ATP luminescence, mouse fibroblasts, counter-screen, dose response (AID 2010);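 note: cells exposed to compound for about 90 hours before reading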
# Assay type: functional, cell-based
The source made the active and inactive calls.
READOUT LABEL: EC50

Examples with answers:
>>> observed_measurement("O=c1[nH]sc2cc(F)ccc12")
"16.1 µM (active)"
>>> observed_measurement("CC1=C(C(=O)Nc2ccccc2)C(c2ccc(C)cc2)NC(Nc2nc3ccccc3o2)=N1 (stereo unspecified)")
"22.3 µM (active)"
>>> observed_measurement("N#C/C(=C/c1ccc(N2CCCCCC2)o1)c1ccc(Cl)cc1")
"> 60 µM (inconclusive)"

Give EC50 for all molecules that follow.
1. CCOC(=O)c1c(NC(=O)C[n+]2ccc(N(C)C)cc2)sc(C)c1C
2. CN(Cc1ccccc1)C1=CC(=[N+]2CCCC2)CC(C)(C)C1
3. Cc1ccc(Cl)cc1N1CCN(Cc2cc3c(cc2O)CCC3)CC1

Result string:
1: > 60 µM (not active); 2: > 60 µM (not active); 3: > 60 µM (not active)

====

# TESTED TARGET: Kallikrein-7 (Homo sapiens, UniProt P49862)
# Sequence (P49862 whole entry): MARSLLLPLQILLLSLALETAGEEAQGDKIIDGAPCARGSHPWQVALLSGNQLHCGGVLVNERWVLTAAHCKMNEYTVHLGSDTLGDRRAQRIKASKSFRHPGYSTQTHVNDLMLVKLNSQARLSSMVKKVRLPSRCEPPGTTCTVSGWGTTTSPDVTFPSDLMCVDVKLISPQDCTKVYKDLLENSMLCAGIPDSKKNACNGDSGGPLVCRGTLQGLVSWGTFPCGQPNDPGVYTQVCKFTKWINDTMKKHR
# TEST METHOD NOTES: Fluorescence Intensity-based biochemical primary high throughput dose response assay to identify activators of kallikrein-7 (K7) zymogen.
The source made the active and inactive calls.
Would you mind answering with one of these outcomes? active, inactive

Below, 3 compounds whose answers are already recorded.
>>> assigned_label("CCN1c2ccccc2-c2nc3ccccc3n2C1c1ccccn1 (centres undefined)")
"inactive"
>>> assigned_label("CCOC(=O)C1CCN(S(=O)(=O)c2cccc(-c3cn4cccnc4n3)c2)CC1")
"inactive"
>>> assigned_label("COC(=O)CC1=C(C(=O)OC)[C@@H](c2ccccc2[N+](=O)[O-])C(C#N)=C(N)O1")
"active"

Query string: Kindly provide the recorded test outcome for the following compound: O=c1c2ccccc2nc(/C=C/c2ccc(O)cc2)n1-c1ccc(O)cc1
Result string: inactive

====

# TESTED TARGET: Cytochrome P450 2C19 (Homo sapiens, UniProt P33261)
# Sequence (P33261 whole entry): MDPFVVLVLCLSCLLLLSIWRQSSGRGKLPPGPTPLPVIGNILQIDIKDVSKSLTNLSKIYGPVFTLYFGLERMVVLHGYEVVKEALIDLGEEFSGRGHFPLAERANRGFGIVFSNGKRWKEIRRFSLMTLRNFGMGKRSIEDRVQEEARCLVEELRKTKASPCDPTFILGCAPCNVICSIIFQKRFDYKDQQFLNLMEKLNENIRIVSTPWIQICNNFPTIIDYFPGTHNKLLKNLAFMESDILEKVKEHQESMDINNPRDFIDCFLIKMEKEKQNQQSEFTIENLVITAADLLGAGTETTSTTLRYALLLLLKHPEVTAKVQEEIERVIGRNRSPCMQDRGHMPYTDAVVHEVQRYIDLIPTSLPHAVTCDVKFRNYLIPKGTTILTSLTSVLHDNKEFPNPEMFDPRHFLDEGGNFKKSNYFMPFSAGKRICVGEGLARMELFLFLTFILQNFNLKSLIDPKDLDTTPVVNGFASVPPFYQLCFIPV
# TEST METHOD NOTES: Cytochrome panel assay with activity outcomes. Panel member name: p450-cyp2c19 Compounds with AC50 equal or less than 10 uM are considered active
# Assay type: functional
# EXPERIMENTAL CONTEXT: read-out: AC50
Field: AC50. Provide a value for each of the compounds that follow.

>>> observed_measurement("Cn1c(-c2ccc3c(c2)OCO3)cc(=O)c2ccccc21")
"2 µM (inconclusive)"
>>> observed_measurement("COc1ccccc1CNc1cc(-c2c(C)noc2C)ncn1")
"25.1 µM (inconclusive)"
>>> observed_measurement("NS(=O)(=O)c1ccc(CNC(=O)/C=C/c2c(Cl)cccc2Cl)cc1")
"25.1 µM (inconclusive)"
>>> observed_measurement("O=C(/C=C/c1cc2c(cc1Br)OCO2)NCc1ccc(Cl)cc1")
"17.8 µM (inconclusive)"
>>> observed_measurement("C[C@](N)(C(=O)O)c1ccc(-c2nnn[nH]2)cc1")
"7.94 µM (inconclusive)"
>>> observed_measurement("COCCNc1nc(-c2cccc(NS(C)(=O)=O)c2)nc2ccccc12")
"39.8 µM (inconclusive)"

Give AC50 for all compounds that follow.
1. COc1ccccc1Nc1nc(-c2sc(NC(=O)c3ccc([N+](=O)[O-])cc3)nc2C)cs1
2. CN(C)S(=O)(=O)c1ccc2c(c1)/C(=C/c1cc3c([nH]1)CCCC3)C(=O)N2
3. Cc1ccc(OCC(=O)NNC(=O)c2cccnc2)cc1
4. COc1ccc(Oc2ncc3ncc(=O)n(C)c3n2)cc1
5. OC[C@@H]1O[C@@H](n2cnc3c(NC4CCCCC4)ncnc32)[C@@H](O)[C@H]1O

Result string:
1: 1.58 µM (inconclusive); 2: 7.94 µM (inconclusive); 3: 3.16 µM (inconclusive); 4: 31.6 µM (inconclusive); 5: 0.0251 µM (inconclusive)

meta.source: ChEMBL document CHEMBL1201862
